Target: human 5HT1A-serotonergic receptor (Homo sapiens, UniProt P08908)
Construct: cell membranes used
Sequence (P08908 1-422): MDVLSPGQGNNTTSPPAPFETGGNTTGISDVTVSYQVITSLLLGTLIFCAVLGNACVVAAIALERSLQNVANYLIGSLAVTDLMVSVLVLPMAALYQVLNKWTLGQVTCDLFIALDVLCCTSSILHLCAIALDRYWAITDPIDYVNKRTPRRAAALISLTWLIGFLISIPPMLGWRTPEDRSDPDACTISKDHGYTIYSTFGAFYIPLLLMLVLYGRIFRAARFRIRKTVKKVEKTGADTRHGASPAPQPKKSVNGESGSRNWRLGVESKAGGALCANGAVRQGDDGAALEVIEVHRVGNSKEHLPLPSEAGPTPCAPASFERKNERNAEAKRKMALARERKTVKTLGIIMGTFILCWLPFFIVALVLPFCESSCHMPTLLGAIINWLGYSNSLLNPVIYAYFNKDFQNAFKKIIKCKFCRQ
Test: Radioligand binding to recombinant 5-HT1A receptors
Conditions: [3H]8-OH-DPAT 1 nM, membranes of HeLa cells with human 5-HT1A receptor; Ki from IC50 by Cheng & Prusoff; read-out: Binding affinity for 5HT1A receptors, Ki
experimental readout: pKi
Lab note: report pKi as minus log10 of the concentration in molar units, number only.

[[record]]
molecule = "CC(C)(C)OC(=O)NCCC(=O)N1c2ccccc2CCC1CN1CCN(c2cccc3[nH]ccc23)CC1 (stereo not shown) [Example 71A1]"
study_target = "human 5HT1A-serotonergic receptor (Homo sapiens, UniProt P08908)"
recorded_measurement = 7.82

[[record]]
molecule = "O=C(N1CCOCC1)N1c2ccccc2CCC1CN1CCN(c2cccc3[nH]ccc23)CC1 (stereo not shown) [Example 14]"
study_target = "human 5HT1A-serotonergic receptor (Homo sapiens, UniProt P08908)"
recorded_measurement = 7.09

[[record]]
molecule = "O=C(c1ccsc1)N1c2ccccc2CCC1CN1CCN(c2cccc3[nH]ccc23)CC1 (stereo not shown) [Example 68A20]"
study_target = "human 5HT1A-serotonergic receptor (Homo sapiens, UniProt P08908)"
recorded_measurement = 7.51


Quick note, pKi for O=C1CCC(CC(=O)N2c3ccccc3CCC2CN2CCN(c3cccc4[nH]ccc34)CC2)N1 (stereo not shown) [Example 68A54] landed at 7.38

Entry O=C(C1CCCCC1)N1c2ccc(O)cc2CCC1CN1CCN(c2cccc3[nH]ccc23)CC1 (stereo not shown) [Example 50] — recorded pKi = 7.39

Measured pKi of O=C(C1CCCCC1)N1c2ccccc2CCC1CN1CCN(c2ccc(F)cc2F)CC1 (stereo not shown) [Example 72A18] : 7.96

The value of pKi measured for the molecule CC(C)CC(=O)N1c2ccccc2CCC1CN1CCN(c2cccc3[nH]ccc23)CC1 (stereo not shown) [Example 68A12] turned out to be 8.59

Value of pKi reported for the molecule O=C(CCCOc1ccccc1)N1c2ccccc2CCC1CN1CCN(c2nccc3ccccc23)CC1 (stereo not shown) [Example 75A11] is 7.77

// pKi lookup, molecule = CC(=O)N1CCC(C(=O)N2c3ccccc3CCC2CN2CCN(c3cccc4[nH]ccc34)CC2)CC1 (stereo not shown) [Example 68A38] , result: 7.61

Looking up Cc1oc(S(=O)(=O)N2CCCCC2)cc1C(=O)N1c2ccccc2CCC1CN1CCN(c2cccc3[nH]ccc23)CC1 (stereo not shown) [Example 68A55] , I found its pKi recorded as 7.84
